Target: T1, 006 PSMA Fab (biotinylated (site not stated))
T1 construct: Biotinylated PSMA Fab captured on neutravidin coated plates in the panning ELISA; also called Anti-PSMA Fab
Assay: clonal phage ELISA on biotinylated PSMA Fab captured on neutravidin plates, anti-M13-HRP detection;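 further: crude clonal phage supernatants added to wells preincubated with PSMA antigen or with blocking buffer only (no wash between), briefly incubated, then washed before detecting bound phage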
readout-name: phage binding ELISA signal
Give the figure only, with no unit attached.

Known phage binding ELISA signal results, listed for orientation:
- binder: "MVHWCTPSWMCSAL (Clone of the Peptide-180 optimisation library, tested as clonal phage supernatant (peptide fused to pIII of the bacteriophage); Row read against Peptide-180: MVHWCTPSWMCSAL) [Phage-2758]"
  phage binding ELISA signal: 0.677
- binder: "ENHWCRPMWMCETI (Clone of the Peptide-180 optimisation library, tested as clonal phage supernatant (peptide fused to pIII of the bacteriophage)) [Phage-2764]"
  phage binding ELISA signal: 0.66
- binder: "PWKWCTPVWMCQGV (Clone of the Peptide-180 optimisation library, tested as clonal phage supernatant (peptide fused to pIII of the bacteriophage)) [Phage-2761]"
  phage binding ELISA signal: 0.669

Could you now look at the following binder, please?
Please give the documented phage binding ELISA signal of DVTWCIPPWMCMYN (Clone of the Peptide-180 optimisation library, tested as clonal phage supernatant (peptide fused to pIII of the bacteriophage)) [Phage-2767] 0.655
